Tested on: Plasmodium falciparum 3D-7 (chloroquine-sensitive strain)
TEST_DESCRIPTION: In vitro antiplasmodial activity assay, microscopic method, strain 3D-7
Format: cell-based
SETUP_CONDITIONS: Plasmodium falciparum, 72 h, read-out: IC50 on P. falciparum 3D-7
ASSAY_ENDPOINT: IC50 (nM)
Kindly provide the numeric value in nM only, without the unit symbol.

input: Return the recorded IC50 value; entry: CCN(CC)CCCC(C)Nc1ccnc2cc(Cl)ccc12 (stereo not shown) [Chloroquine, reference compound]
output: 10

---

This section presents compounds with their documented IC50 values.
System: formation of β-hematin (heme polymerization)
TEST_DESCRIPTION: In vitro heme polymerization inhibitory activity (HPIA) assay
Assay type: biochemical
SETUP_CONDITIONS: 24 hours, 37°C, glacial acetic acid pH 2.6

| COMPOUND | TARGET_OR_TEST_SYSTEM | IC50 |
| --- | --- | --- |
| O=c1c2c(O)cccc2oc2cc(O)cc(O)c12 [HX1, 1,6,8-trihydroxyxanthone] | formation of β-hematin (heme polymerization) | 2.85 mM |

Turning now to a further compound:
input: Return the recorded IC50 value; entry: CCN(CC)CCCC(C)Nc1ccnc2cc(Cl)ccc12 (centres unmarked) [Chloroquine, reference compound]
output: 1.48 mM

---

Tested on: Vero cells
TEST_DESCRIPTION: In vitro cytotoxicity test, MTT assay on Vero cell line
Format: cell-based
SETUP_CONDITIONS: Chlorocebus sabaeus, Vero, MTT assay
This section presents compounds with their documented IC50 values.
Kindly provide the numeric value in µg/mL only, without the unit symbol.

| COMPOUND | UNIT_DESCRIPTOR | IC50 |
| --- | --- | --- |
| O=c1c2cccc(Cl)c2oc2cccc(O)c12 [HX4, 1-hydroxy-5-chloroxanthone] | µg/mL | 82.6 |

input: Return the recorded IC50 value; entry: O=c1c2c(O)cccc2oc2cc(O)cc(O)c12 [HX1, 1,6,8-trihydroxyxanthone]
output: 802

input: Return the recorded IC50 value; entry: O=c1c2ccc(O)cc2oc2cccc(O)c12 [HX2, 1,6-dihydroxyxanthone]
output: 88.9

input: Return the recorded IC50 value; entry: O=c1c2ccc(O)c(O)c2oc2cccc(O)c12 [HX3, 1,5,6-trihydroxyxanthone]
output: 56.2

input: Return the recorded IC50 value; entry: Cc1c(O)ccc2c(=O)c3c(O)cccc3oc12 [HX5, 1,6-dihydroxy-5-methylxanthone]
output: 111
